# maps each entry to its TGFβ inhibition by HEK-Blue cells (IC50: nM), TGFb3; Blocking: Complete
target: human mature TGFβ3 (Homo sapiens, UniProt P10600); test: cell-based or functional assay
Sequence (P10600 301-412): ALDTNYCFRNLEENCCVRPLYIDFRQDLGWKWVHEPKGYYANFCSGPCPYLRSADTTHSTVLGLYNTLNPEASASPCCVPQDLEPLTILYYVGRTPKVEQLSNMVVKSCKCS
Write it as a number; the unit nM goes unstated.

>>> measured_value("humanized 4A11 variant 4 (antibody, V domains shown, as the VH of m12 (h4A11.v7): rbt4A11 CDRs and rabbit Vernier residues grafted on human germline IGHV4-59*06; as the VL of m7 (h4A11.v2): rbt4A11 CDRs and rabbit Vernier residues grafted on human germline IGKV1D-39*01; human IgG1; also called h4A11.v4; v4; source: Expi293F, transient, purified (Protein A, SEC)) VH: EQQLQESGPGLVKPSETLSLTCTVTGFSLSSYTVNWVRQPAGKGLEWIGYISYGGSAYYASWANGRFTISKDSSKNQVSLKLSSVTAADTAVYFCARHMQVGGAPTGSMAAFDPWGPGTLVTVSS VL: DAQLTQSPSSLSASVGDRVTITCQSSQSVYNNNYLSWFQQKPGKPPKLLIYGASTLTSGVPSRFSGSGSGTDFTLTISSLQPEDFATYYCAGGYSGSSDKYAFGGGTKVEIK")
0.1
>>> measured_value("humanized 4A11 variant 7 (antibody, V domains shown, rbt4A11 CDRs (Kabat and Chothia) and rabbit Vernier residues (VH positions 2, 24, 37, 48, 49, 67, 71, 78, 91, 105) grafted on human germline IGHV4-59*06; has S19, S79, K81 (Kabat numbering); rbt4A11 CDRs and rabbit Vernier residues (VL positions 2, 4, 36, 43, 58) grafted on human germline IGKV3-20*01; human IgG1; also called h4A11.v7; v7; source: Expi293F, transient, purified (Protein A, SEC)) VH: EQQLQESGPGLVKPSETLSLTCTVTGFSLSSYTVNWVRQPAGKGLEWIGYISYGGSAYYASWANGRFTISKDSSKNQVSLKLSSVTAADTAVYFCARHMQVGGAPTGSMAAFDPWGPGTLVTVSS VL: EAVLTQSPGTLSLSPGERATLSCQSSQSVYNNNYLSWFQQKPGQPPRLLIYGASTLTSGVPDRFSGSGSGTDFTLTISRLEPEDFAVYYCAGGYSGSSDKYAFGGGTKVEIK")
0.2
>>> measured_value("humanized 4A11 variant 3 (antibody, V domains shown, as the VH of m12 (h4A11.v7): rbt4A11 CDRs and rabbit Vernier residues grafted on human germline IGHV4-59*06; as the VL of m6 (h4A11.v1): rbt4A11 CDRs and rabbit Vernier residues grafted on human germline IGKV4-1*01; human IgG1; also called h4A11.v3; v3; source: Expi293F, transient, purified (Protein A, SEC)) VH: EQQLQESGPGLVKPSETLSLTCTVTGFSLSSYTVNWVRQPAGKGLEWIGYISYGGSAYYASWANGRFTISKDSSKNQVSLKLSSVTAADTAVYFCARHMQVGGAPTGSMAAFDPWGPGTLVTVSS VL: DAVLTQSPDSLAVSLGERATINCQSSQSVYNNNYLSWFQQKPGQPPKLLIYGASTLTSGVPDRFSGSGSGTDFTLTISSLQAEDVAVYYCAGGYSGSSDKYAFGGGTKVEIK")
0.2

Query: Name the reported TGFβ inhibition by HEK-Blue cells (IC50: nM), TGFb3; Blocking: Complete value associated with the binder humanized 4A11 variant 8 (antibody, V domains shown, as the VH of m12 (h4A11.v7): rbt4A11 CDRs and rabbit Vernier residues grafted on human germline IGHV4-59*06; as the VL of m11 (h4A11.v6): rbt4A11 CDRs and rabbit Vernier residues grafted on human germline IGKV2-24*01; human IgG1; also called h4A11.v8; v8; source: Expi293F, transient, purified (Protein A, SEC)) VH: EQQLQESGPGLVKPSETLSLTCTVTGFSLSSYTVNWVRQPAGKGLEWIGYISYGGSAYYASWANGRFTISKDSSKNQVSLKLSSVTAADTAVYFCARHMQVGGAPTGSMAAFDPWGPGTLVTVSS VL: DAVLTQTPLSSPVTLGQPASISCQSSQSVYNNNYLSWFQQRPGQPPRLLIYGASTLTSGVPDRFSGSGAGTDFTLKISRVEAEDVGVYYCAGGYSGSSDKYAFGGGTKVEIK
Result: 0.7
